tested on: K4 kissing-loop RNA reporter; test: apparent KD of K4 kissing-loop reporter; higher = weaker reporter binding; conditions: Eterna round: R107; input ligand: tryptophan 2.4 mM;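 note: bound reporter read as fluorescence of individual clusters on recovered sequencing chips by microscopy, with normalized cluster intensities fitted with a binding model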
Property: apparent KD of K4 kissing-loop reporter; scope: individual sequences
Parameter: apparent KD of K4 kissing-loop reporter (nM)

UGUAUGUGAUUUGAUACCAGACCAGCUGGUGGUACCUGAGUGAUGUUCGGGAUGGUCUGGGUCCCUUGGCAGCAAAUCGCAUACU [KL-SSTheoB21]
212
GCAGUGAUGUUGCAAAAUGUCUGUGGUAGUCGAGGACCGGUACGGCCGCCACUCGGUGAGAACCUGCUAAUACAUCGAUAAGUGA [IX]
666
GUGCGGCUAGUGAUGUUGGUUGCGUGGGAAGGAGCGCAGAAACAUGCAGGUAGGUCGCCCACACCUCUGAAAGGAGGCUAAUUCA [Bisobi]
134
GCAACAUUGGCAGGAUAUCCUUCUCAGUGAUGUUGAGGGUUCAGCUAACGAAAGUUAGUUGUACCAGGAGAAGGGCUAAUGUUGC [Omei KL FMN B SS A v7]
1440
CGCCGCAAGGCGAGCGCUCCCACUCCGGAAGGAGCGCCCGGAAGGGCAGGUAGGUCGCCGGAGUGAUGUUCCGGUGGAGGGCUCG [#2 Exclusion - Arginine A Attempt #13 (Inspired by Omei)]
416
GACAACAGGGUGAGACUCACGGCGCCAGAAGGAGCGGUGAUUCCACCAGGUAGGUCGCUGGCCCAGUGAUGUUGGGCUUUGUGUC [Onoran]
123
AAGAAGAAUGGAAGGAGCGAGCAGAAAUAACCAGUGAUGUUGGAAAGCCUUAUUGCUUAAGCUCAGGUAGGUCGCCAAGAAAAGA [Mostly trial and error]
171
GGUGACAACCAGAAGUGAUGUAUAGAAUAGCGAGGACCGGUACGGCCGCCACUCGUGAAGAGAAAGGAGUGAUGUUCCGUAAUGG [Kazoo C4]
85.1
UCGCAAGAAUCACUGUGGAGGACCUUGGCCAAGGAUAUCAAAGGAUUGAGAAGGUGGCGCCAAGUGAUGUUUGGAUGCCGGGCAG [theeternabot_exclusion_KL_FMN_A_36]
256
AUUAUAAAGGCGGCCGCCACUAGUGAUGUUAGUGACUAUAGUAUUAUCUAUAGAAUAAAAUAAAAUAGGACCGGGCCAAAAUAUU [AstrosExTryB#2]
464
CCACAAUAUGGAAGGAGCGCCAGUGAUGUUGGUGCUUGCUUUAGGUAAGACCGGCCUAUUUGGCAGGUAGGUCGCCAUAUUCAAC [Ageat]
97.2
UCGAGUGAUGUUCGAUUUCAGUGAAGAGAUACCAGCCGCAGUGUAGGCCCUUGGCAGCUCGGCUAUUAUGACAUAUGCAGUUUAG [theeternabot_sameState_KL_Theo_A_29]
80
